- Test system: HEK-293T
- test description: Multiplex assay against HEK293T
- Assay type: toxicity, cell-based
- assay context: human, 48 h, 1 µM, compound concentration 1 uM, replicate 1
Quick rule: Population Tubulin-Different-Phenotype (%) of at least 10% means met, below that means not met.

Examples with answers:
Cc1onc(-c2ccccc2Cl)c1C(=O)N(C)c1ccc(Cl)cc1    not met
CCCCCC(O)/C=C/[C@H]1C(=O)CC(O)C1C/C=C\CCCC(=O)O (stereo not given in full)    not met
CC(C)c1noc(N2CCC(COc3ccc(-c4ccc(S(C)(=O)=O)cc4)nc3)CC2)n1    met

Hi, just wondering whether Cl.N=C(N)NC(=O)Cc1c(Cl)cccc1Cl [GUANFACINE HYDROCHLORIDE] shows Population Tubulin-Different-Phenotype (%) of 10% or higher.
met

Hi, just wondering whether `N#Cc1cc(F)cc(-c2nc(-c3ccc(F)cn3)no2)c1` shows Population Tubulin-Different-Phenotype (%) of 10% or higher.
met

---

- Test system: Fibroblast
- test description: Multiplex assay against human fibroblast
- Format: toxicity, cell-based
- assay context: 24 h, 1 µM, compound concentration 1 uM, replicate 2
Measured Population Membrane Permeable-Phenotype (%) by item
Field: numeric (%). Do not append units.

O=C(NCCN1CCC(n2c(=O)[nH]c3cc(Cl)ccc32)CC1)c1ccc(F)cc1 [HALOPEMIDE]    5
Cc1cccc(NC(=O)CN2CCC(c3ccccn3)CC2)c1.Cl.Cl    4
N#Cc1c(Oc2cccc(OS(=O)(=O)CCCC(F)(F)F)c2)cccc1C(F)(F)F    5

What value of Population Membrane Permeable-Phenotype (%) on Fibroblast does `CC(=O)Nc1cccc2c1c(Sc1ccc(Cl)cc1)c(C)n2CC(=O)O` have?
7

What value of Population Membrane Permeable-Phenotype (%) on Fibroblast does `CC(C)(C)c1cc(NC(=O)Nc2ccc(-c3cn4c(n3)sc3cc(OCCN5CCOCC5)ccc34)cc2)no1` have?
2

What value of Population Membrane Permeable-Phenotype (%) on Fibroblast does `COc1ccccc1N1CCN(C[C@@H](C(=O)NC(C)(C)C)c2ccccc2)CC1.Cl.Cl` have?
8

What value of Population Membrane Permeable-Phenotype (%) on Fibroblast does `CN(C)C(=O)Cn1cc(-c2ccc(-c3cncc4ccccc34)cc2)cn1` have?
7

What value of Population Membrane Permeable-Phenotype (%) on Fibroblast does Cc1sc2c(c1C)C(c1ccc(Cl)cc1)=N[C@@H](CC(=O)NCCCCCCCCNC(=O)COc1cccc3c1C(=O)N(C1CCC(=O)NC1=O)C3=O)c1nnc(C)n1-2 (some centres undefined) have?
16

What value of Population Membrane Permeable-Phenotype (%) on Fibroblast does `Cc1c(CC(=O)O)c2cccnc2n1Cc1ccc(S(C)(=O)=O)cc1C(F)(F)F` have?
4

What value of Population Membrane Permeable-Phenotype (%) on Fibroblast does `COc1cccc2c1c(NS(=O)(=O)c1ccc(Cl)s1)nn2Cc1cccc(CNC(=O)C(C)(C)O)c1` have?
7

---

Measured Population Mitochondria Different-Phenotype (%) by item
- System: U2OS
- test description: Multiplex assay against U2OS
- Format: toxicity, cell-based
- assay context: human, 12 h, 10 µM, compound concentration 10 uM, replicate 1
Field: numeric (%). Do not append units.

Cc1sc2c(c1C)C(c1ccc(Cl)cc1)=N[C@@H](CC(=O)NCCCCCCCCNC(=O)COc1cccc3c1C(=O)N(C1CCC(=O)NC1=O)C3=O)c1nnc(C)n1-2 (some centres undefined)    4
Cc1c(CC(=O)O)c2cccnc2n1Cc1ccc(S(C)(=O)=O)cc1C(F)(F)F    0
Br.CS(=O)(=O)Nc1c(O)ccc2c1CCCC2C1=NCCN1 (centres undefined)    0

Then there is this compound:
Suppose we examine the compound `N#Cc1cc(F)cc(-c2nc(-c3ccc(F)cn3)no2)c1` ; what Population Mitochondria Different-Phenotype (%) value has been reported?
2
